Procedure text: Effect of temperature (and pH) on the stability of the solution (purity)
Assay type: physicochemical
Test parameters: 7% solution in water, pH 4.6, day 21, 60° C.
Measured metric: Purity (%) at day 21 (60° C.)
Note: unit % is implicit; provide only the numeric part.

The cases that follow already have their Purity (%) at day 21 (60° C.) on record.
• CCN(CC)CCOC(=O)CC1=C(C)C(=Cc2ccc([S+](C)[O-])cc2)c2ccc(F)cc21.Cl (stereo not drawn) = 15.5
• CCN(CC)CCOC(=O)C(C)c1ccc2oc(-c3ccc(Cl)cc3)nc2c1.Cl (stereo not drawn) = 12.3
• CCN(CC)CCOC(=O)CCc1ccc2cc(OC)ccc2c1.Cl = 22.3

// Purity (%) at day 21 (60° C.) lookup, molecule = CCN(CC)CCOC(=O)C(C)c1ccc(-c2ccccc2)c(F)c1.Cl (racemic) , result: 10.4

// Purity (%) at day 21 (60° C.) lookup, molecule = CCN(CC)CCOC(=O)Cc1c(C)n(C(=O)c2ccc(Cl)cc2)c2ccc(OC)cc12.Cl , result: 15.3

###

Measured Purity(%) at day 21 (40° C.), listed per entry.
Procedure text: Effect of temperature (and pH) on the stability of the solution (purity)
Format: physicochemical
Test parameters: 7% solution in water, pH 6.0, day 21, 40° C.
Note: unit % is implicit; provide only the numeric part.

The cases that follow already have their Purity(%) at day 21 (40° C.) on record.
* CCN(CC)CCOC(=O)Cc1c(C)n(C(=O)c2ccc(Cl)cc2)c2ccc(OC)cc12.Cl | 27.6
* CCN(CC)CCOC(=O)CCc1nc(-c2ccccc2)c(-c2ccccc2)o1.Cl | 16.5
* CCN(CC)CCOC(=O)C(C)c1ccc2oc(-c3ccc(Cl)cc3)nc2c1.Cl (stereo not drawn) | 20.6

// Purity(%) at day 21 (40° C.) lookup, compound = CCN(CC)CCOC(=O)Cc1ccc(C(=O)c2ccc(C)cc2)n1C.Cl , result: 19.5

// Purity(%) at day 21 (40° C.) lookup, compound = CCN(CC)CCOC(=O)CC1=C(C)C(=Cc2ccc([S+](C)[O-])cc2)c2ccc(F)cc21.Cl (stereo not drawn) , result: 21.6

###

Measured Purity at Day 3, listed per entry.
Procedure text: Effect of concentration on the stability of the solution (purity over time)
Test parameters: 7 wt %; in water at 25° C.
Note: unit % is implicit; provide only the numeric part.

• CCN(CC)CCOC(=O)CCc1ccc2cc(OC)ccc2c1.Cl = 98.4
• CCN(CC)CCOC(=O)Cc1sc(-c2ccccc2)nc1-c1ccc(Cl)cc1.Cl = 98.6
• CCN(CC)CCOC(=O)C(C)c1ccc2oc(-c3ccc(Cl)cc3)nc2c1.Cl (stereo not shown) = 98.4
• CCN(CC)CCOC(=O)CC1=C(C)C(=Cc2ccc([S+](C)[O-])cc2)c2ccc(F)cc21.Cl (stereo not shown) = 97.4
• CCN(CC)CCOC(=O)Cc1ccc(C(=O)c2ccc(C)cc2)n1C.Cl = 97.5

// Purity at Day 3 lookup, molecule = CCN(CC)CCOC(=O)CCc1nc(-c2ccccc2)c(-c2ccccc2)o1.Cl , result: 98.6

// Purity at Day 3 lookup, molecule = CCN(CC)CCOC(=O)Cc1c(C)n(C(=O)c2ccc(Cl)cc2)c2ccc(OC)cc12.Cl , result: 98.4

###

Procedure text: Effect of concentration on the stability of the solution (purity over time)
Test parameters: 10 wt % in 50% ethanol, 25° C.
Measured metric: Purity(%) at Day 14
Your answer should be a number followed by the unit of measure.

- CC(C)(C)OC(=O)C(N)Cc1ccccc1 (centres unmarked) [t-Butyl 2-amino-3-phenylpropanoate, reference compound]: 91.0%
- CCOC(=O)c1ccccc1 [Ethyl benzoate, reference compound]: 97.7%
- CC(C)OC(=O)c1ccccc1 [Isopropyl benzoate, reference compound]: 98.4%
- CC(C)(C)OC(=O)c1ccccc1 [t-Butyl benzoate, reference compound]: 0.0%

Now turn to the next compound.
// Purity(%) at Day 14 lookup, compound = CC(C)OC(=O)C(N)Cc1ccccc1 (centres unmarked) [Isopropyl 2-amino-3-phenylpropanoate, reference compound] , result: 98.3%

###

Procedure text: Effect of concentration on the stability of the solution (purity over time)
Test parameters: 8 wt %; in water at 25° C.
Measured Purity at hr 0, listed per entry.
Note: unit % is implicit; provide only the numeric part.

* CCN(CC)CCOC(=O)Cc1c(C)n(C(=O)c2ccc(Cl)cc2)c2ccc(OC)cc12.Cl | 98.6
* CCN(CC)CCOC(=O)Cc1ccc(C(=O)c2ccc(C)cc2)n1C.Cl | 98.1
* CCN(CC)CCOC(=O)CC1=C(C)C(=Cc2ccc([S+](C)[O-])cc2)c2ccc(F)cc21.Cl (stereo not shown) | 97.5
* CCN(CC)CCOC(=O)Cc1sc(-c2ccccc2)nc1-c1ccc(Cl)cc1.Cl | 99.1
* CCN(CC)CCOC(=O)CCc1nc(-c2ccccc2)c(-c2ccccc2)o1.Cl | 98.7
* CCN(CC)CCOC(=O)CCc1ccc2cc(OC)ccc2c1.Cl | 98.4

// Purity at hr 0 lookup, compound = CCN(CC)CCOC(=O)C(C)c1ccc2oc(-c3ccc(Cl)cc3)nc2c1.Cl (stereo not shown) , result: 98.6

###

Measured Purity(%) at Day 14, listed per entry.
Procedure text: Effect of concentration on the stability of the solution (purity over time)
Test parameters: 0.01 wt % in 50% ethanol, 25° C.
Note: unit % is implicit; provide only the numeric part.

* CC(C)(C)OC(=O)C(N)Cc1ccccc1 (centres unmarked) [t-Butyl 2-amino-3-phenylpropanoate, reference compound] | 83.0

Now turn to the next compound.
// Purity(%) at Day 14 lookup, compound = CC(C)OC(=O)c1ccccc1 [Isopropyl benzoate, reference compound] , result: 98.2

###

Procedure text: Effect of concentration on the stability of the solution (purity over time)
Test parameters: 3 wt %; in water at 25° C.
Measured metric: Purity at Day 3 (%)
Note: unit % is implicit; provide only the numeric part.

The cases that follow already have their Purity at Day 3 on record.
- CCN(CC)CCOC(=O)Cc1ccc(C(=O)c2ccc(C)cc2)n1C.Cl: 96.5
- CCN(CC)CCOC(=O)CCc1ccc2cc(OC)ccc2c1.Cl: 97.7
- CCN(CC)CCOC(=O)C(C)c1ccc2oc(-c3ccc(Cl)cc3)nc2c1.Cl (stereo not shown): 97.5

// Purity at Day 3 lookup, compound = CCN(CC)CCOC(=O)Cc1c(C)n(C(=O)c2ccc(Cl)cc2)c2ccc(OC)cc12.Cl , result: 97.8

// Purity at Day 3 lookup, compound = CCN(CC)CCOC(=O)CCc1nc(-c2ccccc2)c(-c2ccccc2)o1.Cl , result: 96.3

// Purity at Day 3 lookup, compound = CCN(CC)CCOC(=O)Cc1sc(-c2ccccc2)nc1-c1ccc(Cl)cc1.Cl , result: 96.5

// Purity at Day 3 lookup, compound = CCN(CC)CCOC(=O)CC1=C(C)C(=Cc2ccc([S+](C)[O-])cc2)c2ccc(F)cc21.Cl (stereo not shown) , result: 96.7

###

Procedure text: Effect of concentration on the stability of the solution (purity over time)
Test parameters: 1 wt %; in water at 25° C.
Measured Purity at Day 21, listed per entry.
Note: unit % is implicit; provide only the numeric part.

The cases that follow already have their Purity at Day 21 on record.
- CCN(CC)CCOC(=O)[C@H](C)c1ccc2cc(OC)ccc2c1.Cl (racemic): 96.9
- CCN(CC)CCOC(=O)CCc1nc(-c2ccccc2)c(-c2ccccc2)o1.Cl: 84.6
- CCN(CC)CCOC(=O)C(C)c1ccc2oc(-c3ccc(Cl)cc3)nc2c1.Cl (centres unmarked): 92.3
- CCN(CC)CCOC(=O)Cc1ccc(C(=O)c2ccc(C)cc2)n1C.Cl: 90.1
- CCN(CC)CCOC(=O)CCc1ccc2cc(OC)ccc2c1.Cl: 92.3
- CCN(CC)CCOC(=O)Cc1sc(-c2ccccc2)nc1-c1ccc(Cl)cc1.Cl: 90.9
- CCN(CC)CCOC(=O)CC1=C(C)C(=Cc2ccc([S+](C)[O-])cc2)c2ccc(F)cc21.Cl (centres unmarked): 91.5

Now turn to the next molecule.
// Purity at Day 21 lookup, molecule = CCN(CC)CCOC(=O)Cc1c(C)n(C(=O)c2ccc(Cl)cc2)c2ccc(OC)cc12.Cl , result: 92.4

###

Procedure text: Effect of temperature (and pH) on the stability of the solution (purity)
Assay type: physicochemical
Test parameters: 7% solution in water, pH 7.0, day 0
Measured Purity(%) at day 0, listed per entry.
Note: unit % is implicit; provide only the numeric part.

The cases that follow already have their Purity(%) at day 0 on record.
• CCN(CC)CCOC(=O)CCc1nc(-c2ccccc2)c(-c2ccccc2)o1.Cl = 98.2
• CCN(CC)CCOC(=O)CCc1ccc2cc(OC)ccc2c1.Cl = 98.0
• CCN(CC)CCOC(=O)Cc1c(C)n(C(=O)c2ccc(Cl)cc2)c2ccc(OC)cc12.Cl = 98.4

// Purity(%) at day 0 lookup, molecule = CCN(CC)CCOC(=O)COC(=O)Cc1c(C)n(C(=O)c2ccc(Cl)cc2)c2ccc(OC)cc12.Cl , result: 98.1
